This collection of values is drawn from patent US6054435A.

Task for the reader: assign each of the following compounds its reported MIC.
Test system: Streptococcus pyogenes PIU 2548
Numbers only, in µg/mL.

{"COMPOUND": "CC[C@H]1OC(=O)[C@H](C)C(=O)[C@H](C)[C@@H](O[C@@H]2O[C@H](C)C[C@H](N(C)C)[C@H]2O)[C@](C)(OC/C=C/c2nc(-c3cccnc3)cs2)C[C@@H](C)C(=O)[C@H](C)[C@H]2NC(=O)O[C@@]21C [Example 65]", "MIC (µg/mL)": 0.1}
{"COMPOUND": "CC[C@H]1OC(=O)[C@H](C)C(=O)[C@H](C)[C@@H](O[C@@H]2O[C@H](C)C[C@H](N(C)C)[C@H]2O)[C@](C)(OCC#Cc2ccc(-c3cccs3)s2)C[C@@H](C)C(=O)[C@H](C)[C@H]2NC(=O)O[C@@]21C [Example 25]", "MIC (µg/mL)": 0.2}

I would be grateful if you could provide MIC for each of the following entries.
1. CC[C@H]1OC(=O)[C@H](C)C(=O)[C@H](C)[C@@H](O[C@@H]2O[C@H](C)C[C@H](N(C)C)[C@H]2O)[C@](C)(OCC#Cc2ccc(-c3ccsc3)s2)C[C@@H](C)C(=O)[C@H](C)[C@H]2NC(=O)O[C@@]21C [Example 27]
2. CC[C@H]1OC(=O)[C@H](C)C(=O)[C@H](C)[C@@H](O[C@@H]2O[C@H](C)C[C@H](N(C)C)[C@H]2O)[C@](C)(OCC#Cc2ccc(-c3cncs3)s2)C[C@@H](C)C(=O)[C@H](C)[C@H]2NC(=O)O[C@@]21C [Example 29]

## Result
[0.1, 0.05]

----------
Read-out record for Streptococcus pyogenes EES61: MIC
One number for each entry, in µg/mL.

{"COMPOUND": "CC[C@H]1OC(=O)[C@H](C)[C@@H](O[C@H]2C[C@@](C)(OC)[C@@H](O)[C@H](C)O2)[C@H](C)[C@@H](O[C@@H]2O[C@H](C)C[C@H](N(C)C)[C@H]2O)[C@](C)(O)C[C@@H](C)C(=O)[C@H](C)[C@@H](O)[C@]1(C)O [Ery. A, Erythromycin A, reference compound]", "MEASURED ON": "Streptococcus pyogenes EES61", "MEASURED METRIC": "MIC", "OBSERVED": 0.05}

Alright, here's another compound for you.
The measured MIC associated with CC[C@H]1OC(=O)[C@H](C)C(=O)[C@H](C)[C@@H](O[C@@H]2O[C@H](C)C[C@H](N(C)C)[C@H]2O)[C@](C)(OC/C=C/c2ccc(-c3ccsc3)s2)C[C@@H](C)C(=O)[C@H](C)[C@H]2NC(=O)O[C@@]21C [Example 76] reads 0.01

----------
I'd appreciate it if you could supply MIC values for the items below.
Test system: Streptococcus pyogenes PIU 2548
One number for each entry, in µg/mL.

{"COMPOUND": "CC[C@H]1OC(=O)[C@H](C)C(=O)[C@H](C)[C@@H](O[C@@H]2O[C@H](C)C[C@H](N(C)C)[C@H]2O)[C@](C)(OCC#Cc2ccc(-c3ccccn3)s2)C[C@@H](C)C(=O)[C@H](C)[C@H]2N(N)C(=O)O[C@]12C [Example 36]", "MEASURED ON": "Streptococcus pyogenes PIU 2548", "MIC (µg/mL)": 0.39}
{"COMPOUND": "CC[C@H]1OC(=O)[C@H](C)C(=O)[C@H](C)[C@@H](O[C@@H]2O[C@H](C)C[C@H](N(C)C)[C@H]2O)[C@](C)(OCC#Cc2ccc(-c3cc4ccccc4s3)s2)C[C@@H](C)C(=O)[C@H](C)[C@H]2NC(=O)O[C@@]21C [Example 34]", "MEASURED ON": "Streptococcus pyogenes PIU 2548", "MIC (µg/mL)": 0.39}
{"COMPOUND": "CC[C@H]1OC(=O)[C@H](C)C(=O)[C@H](C)[C@@H](O[C@@H]2O[C@H](C)C[C@H](N(C)C)[C@H]2O)[C@](C)(OCC#Cc2ccc(-c3cccc(C)c3)s2)C[C@@H](C)C(=O)[C@H](C)[C@H]2NC(=O)O[C@@]21C [Example 18]", "MEASURED ON": "Streptococcus pyogenes PIU 2548", "MIC (µg/mL)": 0.2}
{"COMPOUND": "CC[C@H]1OC(=O)[C@H](C)C(=O)[C@H](C)[C@@H](O[C@@H]2O[C@H](C)C[C@H](N(C)C)[C@H]2O)[C@](C)(OCC#Cc2ccc(-c3cc(Cl)cc(Cl)c3)s2)C[C@@H](C)C(=O)[C@H](C)[C@H]2NC(=O)O[C@@]21C [Example 17]", "MEASURED ON": "Streptococcus pyogenes PIU 2548", "MIC (µg/mL)": 0.39}
{"COMPOUND": "CC[C@H]1OC(=O)[C@H](C)C(=O)[C@H](C)[C@@H](O[C@@H]2O[C@H](C)C[C@H](N(C)C)[C@H]2O)[C@](C)(OCC#Cc2ccc(-c3ccccn3)s2)C[C@@H](C)C2=NCCN3C(=O)O[C@@]1(C)[C@H]3[C@H]2C [Example 35]", "MEASURED ON": "Streptococcus pyogenes PIU 2548", "MIC (µg/mL)": 0.2}

I have 3 compounds here; please give me MIC for each one.
1. CC[C@H]1OC(=O)[C@H](C)C(=O)[C@H](C)[C@@H](O[C@@H]2O[C@H](C)C[C@H](N(C)C)[C@H]2O)[C@](C)(OC/C=C/c2cnc(-c3cccnc3)s2)C[C@@H](C)C(=O)[C@H](C)[C@H]2NC(=O)O[C@@]21C [Example 55]
2. CC[C@H]1OC(=O)[C@H](C)C(=O)[C@H](C)[C@@H](O[C@@H]2O[C@H](C)C[C@H](N(C)C)[C@H]2O)[C@](C)(OCC#Cc2ccc(-c3cccc(NC(C)=O)c3)s2)C[C@@H](C)C(=O)[C@H](C)[C@H]2NC(=O)O[C@@]21C [Example 20]
3. CCOC(=O)c1cncc(-c2ccc(C#CCO[C@]3(C)C[C@@H](C)C(=O)[C@H](C)[C@H]4NC(=O)O[C@]4(C)[C@@H](CC)OC(=O)[C@H](C)C(=O)[C@H](C)[C@H]3O[C@@H]3O[C@H](C)C[C@H](N(C)C)[C@H]3O)s2)c1 [Example 10]

## Result
1. 0.2
2. 0.2
3. 0.2
